Listing: viability of selected molecules
Test: reversal of MRP1-mediated doxorubicin resistance, pilot screen, H69AR cells, doxorubicin co-treatment (AID 601)
Conditions: H69AR cells, CellTiter-Glo, 72 h; compound alone cytotoxicity; at 10 µM

{"MOLECULE": "Cc1cc(NC(=O)C2=C(O)c3ccccc3S(=O)(=O)N2C)no1", "viability": "112%"}
{"MOLECULE": "CCCC(CCC)C(=O)OC1C[C@H]2CC[C@@H](C1)[N+]2(C)C (stereo not given in full)", "viability": "94%"}
{"MOLECULE": "c1ccc(CNc2ccc3c(c2)ncn3C2CCCCC2)nc1", "viability": "96.8%"}
{"MOLECULE": "CCOC(=O)C1=C(C)Nc2nnnn2C1c1c[nH]c2ccccc12 (stereo not given)", "viability": "104%"}
{"MOLECULE": "Cc1cc(C)n(-c2nc3nonc3nc2-n2nc(C)cc2C)n1", "viability": "105%"}
{"MOLECULE": "O=C(CSc1nc2ccccc2c(=O)n1CCC(=O)N1CCCCC1)NCc1ccccc1", "viability": "81.8%"}
{"MOLECULE": "Cc1cc(Cl)ccc1OCCCC(=O)NO", "viability": "2.07%"}
{"MOLECULE": "Cc1nc(N2CCc3ccccc32)[nH]c(=O)c1CCC(C)C", "viability": "79.1%"}
{"MOLECULE": "COc1ccc(CN2C(=O)c3cccnc3C2Nc2cc(Cl)ccc2OC)cc1 (stereo not given)", "viability": "93.2%"}
{"MOLECULE": "COc1cccc(NC(=O)Cc2nnc(SCC(=O)c3ccccc3)n2C)c1", "viability": "68.1%"}
{"MOLECULE": "CCOC(=O)c1cc(C)n(CCCN2CCOCC2)c1C", "viability": "91.1%"}
{"MOLECULE": "CC(C)C[C@H](NC(=O)[C@@H]1O[C@H]1C(=O)O)C(=O)NCCCCN=C(N)N", "viability": "100%"}
{"MOLECULE": "CC(=O)Nc1c(C(=O)C2CC2)oc2ccccc12", "viability": "90.2%"}
{"MOLECULE": "Cc1ccc(O)c(C(CC(=O)N2CCCC2)c2ccccc2)c1 (stereo not given)", "viability": "94.8%"}
{"MOLECULE": "CCOC(=O)CSc1nnc(-c2ccc(S(=O)(=O)N3CCOCC3)cc2)n1-c1ccccc1", "viability": "105%"}
{"MOLECULE": "Cc1cccc(OCC(=O)N(Cc2cccs2)C2CCS(=O)(=O)C2)c1C (stereo not given)", "viability": "94.6%"}
{"MOLECULE": "CCN(CC)CC#CCOC(=O)C(O)(c1ccccc1)C1CCCCC1 (stereo not given)", "viability": "71.7%"}
{"MOLECULE": "CCOc1ccccc1C(=O)N1CCN(c2cccc(Cl)c2)CC1", "viability": "28.2%"}
{"MOLECULE": "O=C1CCc2cc(S(=O)(=O)N3CCC(C(=O)Nc4nccs4)CC3)ccc2N1", "viability": "85.3%"}
{"MOLECULE": "Cc1c(NC(=O)C(C)OC(=O)COc2cccc3c2OC(C)(C)C3)c(=O)n(-c2ccccc2)n1C (stereo not given)", "viability": "92%"}
{"MOLECULE": "CCOC(=O)C1CCN(C(=O)C2CCN(S(=O)(=O)c3cc(Cl)ccc3Cl)CC2)CC1", "viability": "89.4%"}
{"MOLECULE": "CCC1CCCCN1C(=O)Cn1c(C(=O)OC)cc2sc(Cl)cc21 (stereo not given)", "viability": "71.4%"}
{"MOLECULE": "CCOCCCNC(=O)c1c[nH]c2ccc(S(=O)(=O)Nc3cccc(OC)c3)cc2c1=O", "viability": "99.9%"}
{"MOLECULE": "CCC(=O)c1ccc(OCCN2CCOCC2)cc1", "viability": "109%"}
{"MOLECULE": "O=C1CC(c2ccc(S(=O)(=O)N3CCN(c4ccccc4)CC3)cc2)CN1 (stereo not given)", "viability": "96.4%"}
{"MOLECULE": "CCOC(=O)c1sc(NC(=O)CNC(=O)Cn2cnc3sc(C)c(C)c3c2=O)nc1C", "viability": "104%"}
{"MOLECULE": "O=C(COc1ccccc1)N1CCN(C(=O)c2cccc(F)c2)CC1", "viability": "101%"}
{"MOLECULE": "O=C(NCC(=O)N(c1cnc2ccccc2c1)C(C(=O)NC1CCCC1)c1ccncc1)c1ccco1 (stereo not given)", "viability": "90.1%"}
{"MOLECULE": "O=C(CCN1C(=O)C2C3C=CC(C3)C2C1=O)N1CCN(c2ccccc2Cl)CC1 (stereo not given)", "viability": "96%"}
{"MOLECULE": "Cc1cc(C)c2c(CC(=O)NCc3ccco3)coc2c1", "viability": "91.1%"}
{"MOLECULE": "Cn1c(=O)c2c(nc(NCCCO)n2C/C=C/c2ccccc2)n(C)c1=O", "viability": "83.2%"}
{"MOLECULE": "CC(C(=O)N1CCCCC1)n1sc2ccccc2c1=O (stereo not given)", "viability": "87.4%"}
{"MOLECULE": "COc1ccc(Br)cc1C(=O)Nc1nnn(C)n1", "viability": "104%"}
{"MOLECULE": "Cc1ccc(-c2nnn(CC(=O)N(Cc3ccco3)C(C(=O)NC(C)(C)C)c3cccs3)n2)o1 (stereo not given)", "viability": "95.9%"}
{"MOLECULE": "Cc1ccccc1-n1c(=O)c2ccccc2n2nnnc12", "viability": "93%"}
{"MOLECULE": "Cc1cc(=O)n(C)c(=O)n1CCCNc1ccccc1", "viability": "99.9%"}
{"MOLECULE": "CC(C)N1C(=O)C2C(C(=O)NC3CCCCC3)C3C=CC2(O3)C1C(=O)NC1CCCC1 (stereo not given)", "viability": "109%"}
{"MOLECULE": "Cn1c(SCC(=O)O)nnc1C1CCCCC1", "viability": "92.7%"}
{"MOLECULE": "CCOC(=O)c1[nH]c2ccccc2c1NC(=O)C(CC)CC", "viability": "93.3%"}
{"MOLECULE": "CCOc1ccc(NC(=O)c2ccc3c(c2)N(Cc2ccc(F)cc2)C(=O)CS3=O)cc1 (stereo not given)", "viability": "90%"}
{"MOLECULE": "Cn1cc(NC(=O)c2cc(NC(=O)c3cc(NC=O)cn3C)cn2C)cc1C(=O)NCCC(=N)N", "viability": "83.1%"}
{"MOLECULE": "Cc1cccc(N2CCN(C(=O)Cn3ccc4ccccc4c3=O)CC2)c1C", "viability": "95%"}
{"MOLECULE": "CCN(CC)c1ccc(NC(=O)c2cncc(Br)c2)cc1", "viability": "79.9%"}
{"MOLECULE": "NC(N)=NS(=O)(=O)c1ccc(N)cc1", "viability": "98.8%"}
{"MOLECULE": "O=C(CCN1CCOCC1)Nc1cccc(Br)c1", "viability": "92.9%"}
